Species: Homo sapiens
Test Details: Ratio Ki for inhibition of JAK1 (unknown origin) over TYK2 JH1 domain (unknown origin)
Quick rule for you: Ratio Ki under 50 gets true (1), anything else gets false (0).

Please let me know if O=C1NCc2nc(-c3c(F)cccc3F)cc(Nc3ccc(C(=O)N4CCCC4)cn3)c21 shows Ratio Ki below 50. false (0)

Please let me know if O=C1NCc2nc(-c3c(F)cccc3F)nc(Nc3ccc(C4CCNC4=O)cc3)c21 (stereo in doubt; 14b) shows Ratio Ki below 50. false (0)

Please let me know if CCNC(=O)Cc1ccc(Nc2nc(-c3c(F)cccc3F)nc3c2C(=O)NC3)cc1 shows Ratio Ki below 50. true (1)

Please let me know if O=C1NCc2nc(-c3c(F)cccc3F)nc(Nc3ccc(C4CCCNC4=O)cc3)c21 (stereo in doubt; 15b) shows Ratio Ki below 50. false (0)

Now for another entry.
Please let me know if CCNC(=O)c1ccc(Nc2cc(-c3c(F)cccc3C#N)nc3c2C(=O)NC3)nc1 shows Ratio Ki below 50. true (1)

###

Test Details: Plasma protein binding in human assessed as unbound fraction
Listed below: fraction unbound values for each entry.
Just the number, please, no unit attached.

Consider the worked cases shown below.
Return fraction unbound for the following molecule: CCNC(=O)c1ccc(Nc2cc(-c3c(F)cccc3F)nc3c2C(=O)NC3)nc1 0.17

Return fraction unbound for the following molecule: O=C1NCc2nc(-c3c(F)cccc3F)cc(Nc3ccc(C(=O)N4CCOCC4)cc3)c21 0.25

Next:
Return fraction unbound for the following molecule: O=C1NCc2nc(-c3c(F)cccc3F)cc(Nc3ccc(C(=O)N4CCCC4)cc3)c21 0.099

###

Listed below: Ratio Ki values for each entry.
Species: Homo sapiens
Test Details: Ratio Ki for inhibition of JAK3 (unknown origin) over TYK2 JH1 domain (unknown origin)
Just the number, please, no unit attached.

Return Ratio Ki for the following compound: O=C1NCc2nc(-c3c(F)cccc3F)cc(Nc3ccc(N4CCC(F)(F)CC4)cn3)c21 32

Return Ratio Ki for the following compound: CCNC(=O)c1ccc(Nc2cc(-c3c(F)cccc3F)nc3c2C(=O)NC3)nc1 24

Return Ratio Ki for the following compound: O=C1NCc2nc(-c3c(F)cccc3F)cc(Nc3ccc(C(=O)N4CCOCC4)cc3)c21 8.6

Next:
Return Ratio Ki for the following compound: O=C1NCc2nc(-c3c(F)cccc3F)cc(Nc3ccc(N4CCC(O)CC4)cn3)c21 25

Return Ratio Ki for the following compound: O=C1NCc2nc(-c3c(F)cccc3F)nc(Nc3ccc(CC(=O)N4CCN(CC(F)F)CC4)cc3)c21 2.3

Return Ratio Ki for the following compound: CN1CCN(C(=O)Cc2ccc(Nc3nc(-c4c(F)cccc4F)nc4c3C(=O)NC4)cc2)CC1 10

Return Ratio Ki for the following compound: O=C1NCc2nc(-c3c(F)cccc3F)cc(Nc3ccc(C(=O)N4CCCC4)cn3)c21 3.3

###

Test Details: Half-life in mouse at 3 mg/kg, iv
Format: ADME, organism-based
Test Parameters: in vivo
Observed Property: half-life (h)
Give the quantity in h, number only.

Return half-life for the following molecule: O=C1NCc2nc(-c3c(F)cccc3F)cc(Nc3ccc(C(=O)N4CCCC4)cc3)c21 1.8

###

Test Details: Oral bioavailability in mouse at 10 mg/kg
Format: ADME, organism-based
Test Parameters: in vivo
Observed Property: bioavailability

Return bioavailability for the following compound: O=C1NCc2nc(-c3c(F)cccc3F)cc(Nc3ccc(C(=O)N4CCCC4)cc3)c21 > 90%

###

Test Details: Volume of distribution in rat at 3 mg/kg, iv
Assay type: ADME, organism-based
Test Parameters: in vivo
Observed Property: Vd
Please state the number and follow it with the unit.

Return Vd for the following compound: O=C1NCc2nc(-c3c(F)cccc3F)cc(Nc3ccc(C(=O)N4CCCC4)cc3)c21 1.9 L/kg

###

Data export: Ki values recorded with Non-receptor tyrosine-protein kinase TYK2 (Homo sapiens, UniProt P29597).
Sequence (P29597 whole entry): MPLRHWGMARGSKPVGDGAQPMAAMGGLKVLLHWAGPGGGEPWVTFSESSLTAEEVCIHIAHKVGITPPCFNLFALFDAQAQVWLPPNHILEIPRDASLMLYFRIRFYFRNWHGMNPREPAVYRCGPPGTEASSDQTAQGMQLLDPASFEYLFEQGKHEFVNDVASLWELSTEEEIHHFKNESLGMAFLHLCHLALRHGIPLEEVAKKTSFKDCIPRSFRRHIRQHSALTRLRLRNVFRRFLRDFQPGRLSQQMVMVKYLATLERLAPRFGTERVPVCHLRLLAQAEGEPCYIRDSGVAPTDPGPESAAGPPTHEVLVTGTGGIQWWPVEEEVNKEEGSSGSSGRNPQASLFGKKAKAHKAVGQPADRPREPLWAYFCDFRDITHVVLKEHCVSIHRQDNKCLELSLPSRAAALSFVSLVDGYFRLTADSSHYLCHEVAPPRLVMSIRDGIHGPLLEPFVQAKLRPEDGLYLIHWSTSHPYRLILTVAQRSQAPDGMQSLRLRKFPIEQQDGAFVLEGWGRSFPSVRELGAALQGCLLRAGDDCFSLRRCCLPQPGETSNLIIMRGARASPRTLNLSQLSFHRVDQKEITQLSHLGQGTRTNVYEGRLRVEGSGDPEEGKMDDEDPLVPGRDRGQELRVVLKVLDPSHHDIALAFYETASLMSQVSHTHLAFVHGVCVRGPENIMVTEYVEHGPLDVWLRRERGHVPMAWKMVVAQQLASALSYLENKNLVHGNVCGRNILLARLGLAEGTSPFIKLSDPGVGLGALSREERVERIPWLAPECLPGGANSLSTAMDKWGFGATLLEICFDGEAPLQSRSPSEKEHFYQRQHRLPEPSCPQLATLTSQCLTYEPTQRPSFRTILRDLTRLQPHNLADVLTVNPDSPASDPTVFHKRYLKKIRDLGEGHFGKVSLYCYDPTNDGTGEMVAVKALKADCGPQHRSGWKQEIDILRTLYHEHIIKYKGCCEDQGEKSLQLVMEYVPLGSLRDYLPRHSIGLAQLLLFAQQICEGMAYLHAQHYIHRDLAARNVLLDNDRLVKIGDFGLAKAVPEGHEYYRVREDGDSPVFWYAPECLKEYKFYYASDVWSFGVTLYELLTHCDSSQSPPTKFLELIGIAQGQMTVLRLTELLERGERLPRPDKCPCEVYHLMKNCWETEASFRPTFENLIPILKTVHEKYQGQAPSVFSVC
Give the quantity in nM, number only.

Return Ki for the following compound: O=C1NCc2nc(-c3c(F)cccc3F)nc(Nc3ccc(C4CCNC4=O)cc3)c21 (stereo in doubt; 14b) 1.1

Next:
Return Ki for the following compound: CCNC(=O)C(C)(O)c1ccc(Nc2nc(-c3c(F)cccc3F)nc3c2C(=O)NC3)cc1 (stereo in doubt; 13b) 3.4

###

Test system: Blood
Test Details: Inhibition of IL-12- induced IFN-gamma production in human whole blood
Format: functional, tissue-based
Test Parameters: Homo sapiens, Blood
Listed below: pIC50 values for each entry.
# reply with the number alone; pIC50 is -log10 of concentration in mol/L

Return pIC50 for the following compound: CCNC(=O)c1ccc(Nc2cc(-c3c(F)cccc3F)nc3c2C(=O)NC3)nc1 5.80

Next:
Return pIC50 for the following compound: O=C1NCc2nc(-c3c(F)cccc3F)cc(Nc3ccc(C(=O)N4CCOCC4)cc3)c21 6.21

Return pIC50 for the following compound: O=C1NCc2nc(-c3c(F)cccc3F)cc(Nc3ccc(C(=O)N4CCCC4)cc3)c21 5.74

###

Species: Homo sapiens
Test Details: Ratio Ki for inhibition of JAK2 (unknown origin) over TYK2 JH1 domain (unknown origin)
Quick rule for you: Ratio Ki under 100 gets Yes, anything else gets No.

// below: answered compounds
Please let me know if CCNC(=O)C(C)(O)c1ccc(Nc2nc(-c3c(F)cccc3F)nc3c2C(=O)NC3)cc1 (stereo in doubt; 13b) shows Ratio Ki below 100. No

Please let me know if O=C1NCc2nc(-c3c(F)cccc3F)cc(Nc3ccc(N4CCOCC4)cn3)c21 shows Ratio Ki below 100. No

Please let me know if O=C1NCc2nc(-c3c(F)cccc3F)cc(Nc3ccc(C(=O)N4CC[C@H](O)C4)cc3)c21 shows Ratio Ki below 100. No

Please let me know if CN1CCN(C(=O)Cc2ccc(Nc3nc(-c4c(F)cccc4F)nc4c3C(=O)NC4)cc2)CC1 shows Ratio Ki below 100. Yes

Please let me know if O=C1NCc2nc(-c3c(F)cccc3F)cc(Nc3ccc(C(=O)N4CCCC4)cn3)c21 shows Ratio Ki below 100. Yes

Please let me know if O=C1NCc2nc(-c3c(F)cccc3F)cc(Nc3ccc(N4CCC(F)(F)CC4)cn3)c21 shows Ratio Ki below 100. No

Next:
Please let me know if O=C1NCc2nc(-c3c(F)cccc3F)nc(Nc3ccc(C4CCCNC4=O)cc3)c21 (stereo in doubt; 15b) shows Ratio Ki below 100. Yes

Please let me know if O=C1NCc2nc(-c3c(F)cccc3F)nc(Nc3ccc(C4CCNC4=O)cc3)c21 (stereo in doubt; 14b) shows Ratio Ki below 100. Yes

###

Test Details: Volume of distribution in mouse at 3 mg/kg, iv
Assay type: ADME, organism-based
Test Parameters: in vivo
Observed Property: Vd (L/kg)
Give the quantity in L/kg, number only.

Return Vd for the following molecule: O=C1NCc2nc(-c3c(F)cccc3F)cc(Nc3ccc(C(=O)N4CCCC4)cc3)c21 1.2

###

Test Details: Clearance in rat at 3 mg/kg, iv
Format: ADME, organism-based
Test Parameters: in vivo
Observed Property: clearance (mL/min/kg)
Give the quantity in mL/min/kg, number only.

Return clearance for the following molecule: O=C1NCc2nc(-c3c(F)cccc3F)cc(Nc3ccc(C(=O)N4CCCC4)cc3)c21 27

###

Test Details: Plasma protein binding in rat
Observed Property: fraction unbound
Just the number, please, no unit attached.

Return fraction unbound for the following compound: O=C1NCc2nc(-c3c(F)cccc3F)cc(Nc3ccc(C(=O)N4CCCC4)cc3)c21 0.13

###

Listed below: efflux ratio values for each entry.
Test Details: Efflux ratio of apparent permeability in human Caco-2 cells
Just the number, please, no unit attached.

Consider the worked cases shown below.
Return efflux ratio for the following compound: O=C1NCc2nc(-c3c(F)cccc3F)cc(Nc3ccc(C(=O)N4CCOCC4)cc3)c21 9.1

Return efflux ratio for the following compound: O=C1NCc2nc(-c3c(F)cccc3F)cc(Nc3ccc(C(=O)N4CC[C@H](O)C4)cc3)c21 60

Return efflux ratio for the following compound: CCNC(=O)Cc1ccc(Nc2cc(-c3c(F)cccc3F)nc3c2C(=O)NC3)nc1 9.6

Return efflux ratio for the following compound: O=C1NCc2nc(-c3c(F)cccc3F)cc(Nc3ccc(N4CCOCC4)cn3)c21 0.58

Return efflux ratio for the following compound: O=C1NCc2nc(-c3c(F)cccc3F)cc(Nc3ccc(N4CCC(F)(F)CC4)cn3)c21 0.68

Next:
Return efflux ratio for the following compound: O=C1NCc2nc(-c3c(F)cccc3F)cc(Nc3ccc(N4CCOCC4=O)cn3)c21 7.8

Return efflux ratio for the following compound: CCNC(=O)C(C)(O)c1ccc(Nc2nc(-c3c(F)cccc3F)nc3c2C(=O)NC3)cc1 (stereo in doubt; 13a) 32

Return efflux ratio for the following compound: CCNC(=O)c1ccc(Nc2cc(-c3c(F)cccc3F)nc3c2C(=O)NC3)nc1 7.2

Return efflux ratio for the following compound: O=C1NCc2nc(-c3c(F)cccc3F)cc(Nc3ccc(N4CCC(O)CC4)cn3)c21 1.5

Return efflux ratio for the following compound: CCNC(=O)Cc1ccc(Nc2nc(-c3c(F)cccc3F)nc3c2C(=O)NC3)cc1 6.4
